# TEST_DESCRIPTION: Log D measurement (n-octanol/PBS, gamma counting)
# Type: physicochemical
# STATED_CONDITIONS: measured with 125I-labelled compound
READOUT: logD

                               smiles_entry  readout_value
0  O=C1C(=O)N(Cc2nnn(CCF)c2I)c2ccc(S(=O)(=O)N3CCC[C@H]3COc3ccc(F)cc3F)cc21            1.6
1       O=C1C(=O)N(Cc2nnn(CCF)c2I)c2ccccc21           1.14

----------
Reported Ki values for a set of compounds
# TARGET_ENTITY: Recombinant human caspase-3 (Homo sapiens)
# Sequence (P42574 29-175 limits assumed): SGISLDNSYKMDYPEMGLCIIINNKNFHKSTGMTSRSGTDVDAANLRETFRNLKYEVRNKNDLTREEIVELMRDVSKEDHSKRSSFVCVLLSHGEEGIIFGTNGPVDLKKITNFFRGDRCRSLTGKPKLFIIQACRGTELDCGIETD
# Sequence (P42574 176-277 limits assumed): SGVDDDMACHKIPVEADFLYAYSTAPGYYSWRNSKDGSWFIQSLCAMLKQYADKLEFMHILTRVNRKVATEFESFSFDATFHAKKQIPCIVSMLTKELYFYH
# TEST_DESCRIPTION: Caspase enzyme inhibition assay (fluorogenic Ac-DEVD-AMC), caspase-3
READOUT: Ki (nM)

>>> df
                               smiles_entry                             target_entity   u  qualifier_symbol  readout_value
0       O=C1C(=O)N(Cc2nnn(CCF)c2I)c2ccccc21  Recombinant human caspase-3 (Homo sapiens)  nM                 >          50000
1  O=C1C(=O)N(Cc2nnn(CCF)c2I)c2ccc(S(=O)(=O)N3CCC[C@H]3COc3ccc(F)cc3F)cc21  Recombinant human caspase-3 (Homo sapiens)  nM                 =            6.1

Where do the numbers come from? From paper PMC6917698.
